target: OCT2 (Homo sapiens); assay: Inhibition of OCT2-mediated [14C]metformin uptake in HEK-OCT2 cells; details: human, pH 7.3, probe [14C]metformin, 1000 µM, % Inhibition of OCT2-dependent MF uptake at 20 µM (mean ± SEM), test drug 20 µM; metformin 1000 μM; 3 min; net uptake HEK-OCT2 minus HEK-VC
Sequence (O15244 whole entry): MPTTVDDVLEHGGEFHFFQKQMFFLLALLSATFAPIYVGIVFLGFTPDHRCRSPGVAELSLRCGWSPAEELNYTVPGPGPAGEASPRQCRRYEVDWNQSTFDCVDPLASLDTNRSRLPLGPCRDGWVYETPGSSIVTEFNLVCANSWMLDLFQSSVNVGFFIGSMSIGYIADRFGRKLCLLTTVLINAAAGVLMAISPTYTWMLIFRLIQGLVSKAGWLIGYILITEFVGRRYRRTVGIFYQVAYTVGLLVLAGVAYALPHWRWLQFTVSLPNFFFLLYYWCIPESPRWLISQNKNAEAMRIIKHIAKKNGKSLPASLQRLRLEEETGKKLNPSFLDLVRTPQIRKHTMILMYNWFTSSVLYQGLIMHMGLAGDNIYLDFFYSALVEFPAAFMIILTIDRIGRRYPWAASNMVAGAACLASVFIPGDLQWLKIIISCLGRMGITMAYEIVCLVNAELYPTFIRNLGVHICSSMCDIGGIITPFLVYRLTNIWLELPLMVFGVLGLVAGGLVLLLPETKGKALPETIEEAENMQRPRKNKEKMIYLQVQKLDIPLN
Returns y if the recorded inhibition at 3 min, 20 µM is greater than or equal to 50%, and n otherwise.

Molecule	Group Label
N[C@@H](Cc1cc(I)c(Oc2cc(I)c(O)c(I)c2)c(I)c1)C(=O)O [Levothyroxine]	n
CCCc1nc(C(C)(C)O)c(C(=O)O)n1Cc1ccc(-c2ccccc2-c2nnn[nH]2)cc1 [Olmesartan]	n
Oc1ncnc2[nH]ncc12 [Allopurinol]	n
CCOc1nc2cccc(C(=O)O)c2n1Cc1ccc(-c2ccccc2-c2nnn[nH]2)cc1 [Candesartan]	n
COC(=O)C1=C(C)NC(C)=C(C(=O)OC(C)(C)CN(C)CCC(c2ccccc2)c2ccccc2)C1c1cccc([N+](=O)[O-])c1 (stereo not shown) [Lercanidipine]	n
O=C1[C@H](CC[C@H](O)c2ccc(F)cc2)[C@@H](c2ccc(O)cc2)N1c1ccc(F)cc1 [Ezetimibe]	n
COc1ccc2cccc(CCNC(C)=O)c2c1 [Agomelatine]	y
CCN1CCCC1CNC(=O)c1cc(S(=O)(=O)CC)c(N)cc1OC (stereo not shown) [Amisulpride]	y
COc1nc(C)nc(Cl)c1N=C1NCCN1 [Moxonidine]	y
C[C@]12CCC(=O)C=C1[C@@H]1C[C@@H]1[C@H]1[C@@H]3[C@@H]4C[C@@H]4[C@@]4(CCC(=O)O4)[C@@]3(C)CC[C@@H]12 [Drospirenone]	y

* * *

molecular target: OCT2 (Homo sapiens); test: in vitro; details: human, pH 7.3
In this section, each of the compounds is paired with its reported % Inhibition of OCT2-dependent MF uptake at 20 µM (mean ± SEM).
Measurement Label: % Inhibition of OCT2-dependent MF uptake at 20 µM (mean ± SEM)

> print(dat)
                                   compound  experimental.system      result
1                    CC(C)C[C@H](CN)CC(=O)O  OCT2 (Homo sapiens)  -1.3 ± 9.0
2  CCOC(=O)[C@H](CCc1ccccc1)N[C@@H](C)C(=O)N1[C@H](C(=O)O)C[C@@H]2CCC[C@@H]21  OCT2 (Homo sapiens)  12.9 ± 4.1
3  CC(C)Cc1ccc(C(C)C(=O)O)cc1 (centres unmarked)  OCT2 (Homo sapiens)  23.4 ± 6.7
4  Cc1c(N(C)CS(=O)(=O)O)c(=O)n(-c2ccccc2)n1C  OCT2 (Homo sapiens)  -4.8 ± 6.4
5   CNC(=C[N+](=O)[O-])NCCSCc1ccc(CN(C)C)o1  OCT2 (Homo sapiens)  65.2 ± 7.7

* * *

molecular target: OCT2 (Homo sapiens); assay: Inhibition of OCT2-mediated [3H]MPP+ uptake in HEK-OCT2 cells; details: test drug 20 µM; MPP+ 50 μM; 3 min; net uptake HEK-OCT2 minus HEK-VC
Measurement Label: % Inhibition of OCT2-dependent MPP+ uptake at 20 µM (mean ± SEM) (%)

Molecule	Numeric Readout
CC(=O)NCCCS(=O)(=O)O [Acamprosate]	-8.1
C[C@H]1O[C@@H](O[C@H]2[C@@H](O)C[C@H](O[C@H]3[C@@H](O)C[C@H](O[C@H]4CC[C@@]5(C)[C@H](CC[C@@H]6[C@@H]5CC[C@]5(C)[C@@H](C7=CC(=O)OC7)CC[C@]65O)C4)O[C@@H]3C)O[C@@H]2C)C[C@H](O)[C@@H]1O	-32.6
Cc1cc2c(s1)Nc1ccccc1N=C2N1CCN(C)CC1	83.5
CCC(C)(C)C(=O)O[C@H]1C[C@@H](C)C=C2C=C[C@H](C)[C@H](CC[C@@H]3C[C@@H](O)CC(=O)O3)[C@H]21	48.5
Cc1ccc(-c2ncc(Cl)cc2-c2ccc(S(C)(=O)=O)cc2)cn1	2.3
CCOC(=O)C1=C(C)NC(C)=C(C(=O)OC)C1c1cccc([N+](=O)[O-])c1 (stereo not shown)	4.0
OCCN1CCN(CCCN2c3ccccc3Sc3ccc(C(F)(F)F)cc32)CC1	39.3
Cc1cccc(C)c1NC(=O)c1cc(S(N)(=O)=O)c(Cl)cc1O [Xipamide]	10.5
CN1CCN(CCCN2c3ccccc3Sc3ccccc32)CC1	58.5
C[C@]12C=CC(=O)C=C1CC[C@@H]1[C@@H]2[C@@H](O)C[C@@]2(C)[C@H]1CC[C@]2(O)C(=O)CO	42.1
CCCCc1nc(Cl)c(CO)n1Cc1ccc(-c2ccccc2-c2nn[nH]n2)cc1	-41.8
COc1ccc2[nH]c([S+]([O-])Cc3ncc(C)c(OC)c3C)nc2c1 (stereo not shown)	56.0
COc1ccccc1OCCNCC(O)COc1cccc2[nH]c3ccccc3c12 (stereo not shown)	32.2
CCOC(=O)[N-]c1cn(N2CCOCC2)n[o+]1	-1.7
CC(C)Cc1ccc(C(C)C(=O)O)cc1 (stereo not shown)	-5.8
N[C@@H](CC(=O)N1CCn2c(nnc2C(F)(F)F)C1)Cc1cc(F)c(F)cc1F	-8.2
Cc1ncsc1CCCl	-6.7
O=C(O)Cc1ccccc1Nc1c(Cl)cccc1Cl	8.8
CC1CCN(CCCC(=O)c2ccc(F)cc2)CC1	8.6
